Test system: GAMG (Glioblastoma);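 also: after 72 h of two-drug dosing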
experimentalProtocol: Bliss excess, mean over the matrix (fraction); higher = more synergy
This section presents compounds with their documented Bliss excess values.

Before answering, review these 3 worked examples.
CS(=O)(=O)CCNCc1ccc(-c2ccc3ncnc(Nc4ccc(OCc5cccc(F)c5)c(Cl)c4)c3c2)o1 [Lapatinib] + C[C@@H](Oc1cc(-c2cnn(C3CCNCC3)c2)cnc1N)c1c(Cl)ccc(F)c1Cl [Crizotinib] (first compound max 10 µM, 7x7, partner max 10 µM)    -0.0277
O=C(c1cc(Cc2n[nH]c(=O)c3ccccc23)ccc1F)N1CCN(C(=O)C2CC2)CC1 [Olaparib] + Cc1c2c(nn1C)CSCc1cc(n(C)n1)CSc1cc(c3ccccc3c1)OCCCc1c(C(=O)O)n(C)c3c-2c(Cl)ccc13 [AZD5991] (first compound max 10 µM, 7x7, partner max 1 µM)    -0.0488
COc1nnc2ccc(N3CCC(c4ccc(OCCN5CCN(C)C(=O)[C@H]5C)cc4)CC3)nn12 [AZD5153] + Cn1cnc2c(F)c(Nc3ccc(Br)cc3Cl)c(C(=O)NOCCO)cc21 [Selumetinib] (first compound max 1 µM, 7x7, partner max 10 µM)    -0.0192

Here's the next entry for you.
Value lookup for Bliss excess; key = C=CCn1c(=O)c2cnc(Nc3ccc(N4CCN(C)CC4)cc3)nc2n1-c1cccc(C(C)(C)O)n1 [AZD1775] + O=C(c1cc(Cc2n[nH]c(=O)c3ccccc23)ccc1F)N1CCN(C(=O)C2CC2)CC1 [Olaparib] (first compound max 1 µM, partner max 10 µM)
0.0147

Just for reference, the supplement of paper PMC11061612 is where these values come from.
